- experimental.system: PAK4 kinase activity in whole cells (TR-293-KDG, modified HEK 293 overexpressing GEF-H1b and PAK4 KD) (Homo sapiens (Human), UniProt O96013)
- Sequence (O96013 321-572): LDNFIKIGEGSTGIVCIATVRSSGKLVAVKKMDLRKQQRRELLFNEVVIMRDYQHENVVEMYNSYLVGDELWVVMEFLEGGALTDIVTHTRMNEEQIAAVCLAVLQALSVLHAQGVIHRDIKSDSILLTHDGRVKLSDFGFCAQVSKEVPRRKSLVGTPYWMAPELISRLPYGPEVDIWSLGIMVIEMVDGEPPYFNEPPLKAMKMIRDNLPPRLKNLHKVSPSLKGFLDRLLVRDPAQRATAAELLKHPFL
- assay.notes: PAK4 cellular assay: sandwich ELISA of PAK4-dependent phosphorylation of GEF-H1b in TR-293-KDG cells
- condition.info: doxycycline-induced, 3-hour exposure, phospho-GEF-H1b ELISA
quantity.name: pEC50
By convention, pEC50 is the negative base-10 log of a molar concentration.

molecule: Cc1csc2c(Nc3n[nH]c4c3CN(C(=O)N[C@H]3C[C@@H]3c3ccccc3)C4(C)C)ncnc12 (relative stereo)
pEC50: 6.48

Turning now to a further molecule:
**Query** Any idea what its pEC50 is? The molecule is CN(C)C[C@@H](NC(=O)N1Cc2c(Nc3ncnc4sccc34)n[nH]c2C1(C)C)c1ccccc1
**Result** 7.72
